Reference source for all entries: PubChem BioAssay (NCI)

- System: TK-10 renal
- RUN DESCRIPTION: NCI tumour cell line growth inhibition, 48 h
Could you please report measured GI50 for the items listed next?

Look up GI50: "O=C(O)c1cc[c]([Hg][S]c2ncnc3nc[nH]c23)cc1"
2.59 µM

And "COc1ccc(-c2cc(-c3ccc(Cl)cc3)c(C#N)c(=O)n2CCCCC(=O)Nc2ccccc2N)cc1" ?
27.9 µM

And "CS(=O)(=O)c1ccc(Cl)c([N+](=O)[O-])c1" ?
18.9 µM

And "C/C(=N\O)c1ccc(Nc2cc(-n3nnc4ccccc43)nc3ccccc23)cc1" ?
3.14 µM

And Cc1ccc(C(=O)/C(=C/c2ccc([N+](=O)[O-])cc2)S(=O)Cc2ccccc2)cc1 (centres undefined) ?
1.78 µM

And "O=C(Nc1ccc(OC(F)(F)F)cc1)c1sccc1NCc1ccnc2ccccc12" ?
4.87 µM

And COc1cc(C2c3cc4c(cc3[C@@H](Nc3ccc(N(C)C)cc3)[C@H]3COC(=O)C23)OCO4)cc(OC)c1O (some centres undefined) ?
8.85 µM

And "COc1cc2cc(Oc3ccc(NC(=O)c4cccc(C(F)(F)F)c4)cc3)c(C)nc2cc1OC" ?
5.18 µM

And "O=C1/C(=C/c2ccc(Cl)cc2)CCCc2ccc(F)cc21" ?
15.7 µM

----------
- System: SNB-75 CNS
- RUN DESCRIPTION: NCI tumour cell line growth inhibition, 48 h
READOUT KIND: TGI (µM)
Output spec: scalar in µM, unitless text.

# query: TGI | item "CCOC(=O)c1c(NC(=O)c2ccc(C(C)C)cc2)sc2c(CN(C)C)c(O)ccc12" | system: SNB-75 CNS
3.39

And "COC(=O)C1=C(C(=O)OC)SC(=C2SC3=C(SC(=C4SCCS4)S3)S2)S1" ?
6.86

And CC(CO)[C@H]1OC(=O)C=C2[C@@]13O[C@@H]3[C@H]1OC(=O)[C@@]3(C)[C@H]4O[C@H]4C[C@@]2(C)[C@@H]13 (some centres undefined) ?
6.05

And O=C(O)C1=NN(c2ccc(S(=O)(=O)O)cc2)C2(C1)C(Cl)C(=O)N2c1nc2ccccc2s1 (centres undefined) ?
30.7

And "NS(=O)(=O)c1ccc(N2Cc3cc(Cl)ccc3OC3=C2C(=O)N(CC2CCCCC2)C3=O)cc1" ?
2.13

----------
Could you please report measured TGI for the items listed next?
- System: A549 NSCLC
- RUN DESCRIPTION: NCI tumour cell line growth inhibition, 48 h
Peptide text beside a SMILES is read from it. * marks the point of attachment. X26 = Clc1c(Cl)c(Cl)c(O*)c(Cl)c1Cl; Boc = CC(C)(C)OC(=O)*; OBn = c1ccc(CO*)cc1; Bn = c1ccc(C*)cc1

Look up TGI: "c1c(N2CCOCC2)ssc1=[N+]1CCOCC1"
> 100 µM

And "CC(C)c1ccc2nc3ccc(C(=O)NCCN(C)C)cn3c(=O)c2c1" ?
34.7 µM

And "Oc1c(OCc2nnc(CCCCCCCCc3nnc(COc4ccc5ccccc5c4O)o3)o2)ccc2ccccc12" ?
> 100 µM

And "CC(=O)N(CCN)CCN" ?
> 10 µM

And "O=c1ccn(-c2ccccn2)c(=O)n1-c1ccccn1" ?
> 100 µM

And O=P(OCc1ccccc1)(OCc1ccccc1)C(O)/C=C/c1ccccc1 (stereo unspecified) ?
> 100 µM

And CCC1(Br)C(=O)NC(=O)N(C2CC(O)C(CO)O2)C1N=[N+]=[N-] (stereo unspecified) ?
> 100 µM

And "Cc1cc([N+](=O)[O-])c(C)c2c1[nH]c1ccc(/C(CCC3CCCC3)=N\N)cc12" ?
34.2 µM

And "Cc1nnc2n1-c1ccccc1N(Cc1ccccc1)CC2" ?
> 100 µM

And O=C(CC(C(=O)c1cccs1)c1ccc2c(c1)OCO2)c1ccc(Br)cc1 (stereo unspecified) ?
> 100 µM

And "COc1ccc(OC/C(N=Cc2ccncc2)=N/NC(=O)c2ccncc2)cc1" ?
> 100 µM

And "O=C1[C@@H](c2ccc(Cl)cc2)[C@H]2CC=C[C@H]2N1O" ?
> 100 µM

And CC(C)c1cccc(C(C)C)c1NC(=O)C(=O)C(C(=O)c1ccccc1-c1ccccc1)C1OC(=O)c2ccccc21 (stereo unspecified) ?
> 100 µM

And O=C(c1ccccc1)c1c(CC(O)c2cccnc2)n(C(=O)c2ccccc2)c2ccccc12 (stereo unspecified) ?
> 100 µM

And "C[C@H](c1ccccc1)N1C(=O)[C@@H](OCc2ccccc2)[C@H]1[C@H](COC(=O)COCc1ccccc1)OCc1ccccc1" ?
> 100 µM

And CCN(c1ccc(CO)c(Cl)c1)C(C)c1ccc(F)cc1 (stereo unspecified) ?
27.9 µM

And "Cc1cccc(NS(=O)(=O)c2ccc(N=Nc3c(O)c(C(=O)O)cc4ccccc34)cc2)n1" ?
> 100 µM

And "CC12CC3(C)CC(C)(C1)CC(N=[N+]=[N-])(C2)C3" ?
> 100 µM

And "O=[N+]([O-])/C(Cl)=C(/C(Cl)=C(Cl)Cl)N1CCCCC1" ?
28.5 µM

And CCCCCCCCCCCCOCCOCCOCCOCCOCCOCC(=O)NC(Cc1ccccc1)C(=O)Oc1ccc([N+](=O)[O-])cc1 (stereo unspecified) ?
> 100 µM

And "N#CC(C#N)SCc1ccccc1" ?
> 100 µM

And "Clc1cc(C(c2cc(Cl)sc2Cl)c2cc(Cl)sc2Cl)c(Cl)s1" ?
> 100 µM

And "COc1ccc(C(=O)N2c3ccccc3Sc3ccccc32)c(F)c1" ?
> 100 µM

And "COc1cc2c3c(cc(Cl)nc3c1OC)C(=O)C(=O)N2" ?
38.6 µM

And CC[N+]1(C)CCC(O)(c2ccc(C)cc2)C(C(=O)c2ccc(C)cc2)C1 (stereo unspecified) ?
> 100 µM

And "CC1(C)CCC(C)(C)c2cc(C(=O)Nc3ccc(C(=O)O)cc3)ccc21" ?
> 75.1 µM

And "CC(C)n1c(/C=C/[C@@H](O)C[C@@H](O)CC(=O)O)c(-c2ccc(F)cc2)c2ccccc21" ?
> 100 µM

And "COc1ccc2nc(-c3ccccc3)cc(Nc3cccc(/C(C)=N\O)c3)c2c1" ?
> 100 µM

And "O=C(Nc1ccc(OC(F)(F)F)cc1)c1sccc1NCc1ccnc2ccccc12" ?
> 100 µM

And "CCOc1ccc(N=Nc2ccc3cc(/C(C)=N/NC(=O)/C(C#N)=C\c4ccc(N(CCC#N)CCC#N)cc4)c(=O)oc3c2)cc1" ?
> 10 µM

And "CSc1ccc(C2=Nn3c(nnc3-c3ccc(F)c(Cl)c3)SC2)cc1" ?
29.7 µM

And "N#Cc1ccc(-c2nc(C#N)c(N)o2)cc1" ?
> 10 µM

And "COc1cc2cc(Oc3ccc(NC(=O)c4cccc(C(F)(F)F)c4)cc3)c(C)nc2cc1OC" ?
> 100 µM

And "CC(=O)c1cccc(N(/C=C/C(=O)C(F)(F)F)CC(=O)c2ccc(Cl)cc2)c1" ?
> 100 µM

And "CN(C)c1ccc(/C=c2/c3ccccc3n3c2cc(-c2ccccc2)[n+]3C)cc1" ?
2.04 µM

And "Cn1cc(C2=C(c3cn(C)c4ccc(N)cc34)C(=O)NC2=O)c2ccccc21" ?
> 25 µM

And "CS(=O)(=O)c1ccc(Cl)c([N+](=O)[O-])c1" ?
41.1 µM

And CC(C)CC(NC(=O)C(CCC(=O)OCc1ccccc1)NC(=O)OC(C)(C)C)C(=O)NC(COCc1ccccc1)C(=O)NC(Cc1ccccc1)C(=O)Oc1c(Cl)c(Cl)c(Cl)c(Cl)c1Cl (stereo unspecified) (Boc-E(OBn)LS(Bn)F-X26; configuration not given here) ?
96 µM

And "CN(C)CCCNc1cc(O)c2c(c1O)C(=O)c1ccccc1C2=O" ?
23.9 µM

And "Nc1nc2c(ncn2Cc2ccccc2CCO)c(=O)[nH]1" ?
> 100 µM

And O=P1(C(O)/C=C/c2ccccc2)N(Cc2ccccc2)[C@@H]2CCCC[C@H]2N1Cc1ccccc1 (stereo partly specified) ?
43 µM

----------
- Test system: A498 renal
- RUN DESCRIPTION: NCI tumour cell line growth inhibition, 48 h
READOUT KIND: TGI (µM)
Output spec: scalar in µM, unitless text.

Look up TGI: "CCOC(=O)c1c(NC(=O)c2ccc(C(C)C)cc2)sc2c(CN(C)C)c(O)ccc12"
9.02

And O=C(O)C1=NN(c2ccc(S(=O)(=O)O)cc2)C2(C1)C(Cl)C(=O)N2c1nc2ccccc2s1 (stereo not given) ?
36.7

And O=P(OCc1ccccc1)(OCc1ccccc1)C(O)/C=C/c1ccccc1 (stereo not given) ?
35.2
